- System: DBTRG-05MG (Glioblastoma)
- Protocol Details: combination Emax (second highest fraction inhibited in the dose matrix, 72 h); higher = more inhibition; extreme values may be limits of the assay
Measurement Type: combination Emax

Would you kindly share the measured combination Emax for Cc1cc2ncnn2cc1Nc1ncc2c(n1)n(C1CCOCC1)c(=O)n2C [AZD7648] + CN(C)CCCOc1ccc(-c2ccc3ncc4c(c3c2)n(C2CCOCC2)c(=O)n4C)cn1 [AZD0156] (first compound max 10 µM, 7x7, partner max 1 µM) ?
0.192

Given the compound C[C@@H](c1ccc2nccn2c1)n1nnc2ncc(-c3cnn(C)c3)nc21 [Savolitinib] + CC1(C)CCC(CN2CCN(c3ccc(C(=O)NS(=O)(=O)c4ccc(NCC5CCOCC5)c([N+](=O)[O-])c4)c(Oc4cnc5[nH]ccc5c4)c3)CC2)=C(c2ccc(Cl)cc2)C1 [Venetoclax] (first compound max 1 µM, 7x7, partner max 1 µM) , what is its reported combination Emax?
0.117

Give its combination Emax value. Item: COc1nnc2ccc(N3CCC(c4ccc(OCCN5CCN(C)C(=O)[C@H]5C)cc4)CC3)nn12 [AZD5153] + CN(CC[C@H](CSC1=CC=CC=C1)NC2=C(C=C(C=C2)S(=O)(=O)NC(=O)C3=CC=C(C=C3)N4CCC(CC4)[C@H](C5=CC=CC=C5C6=CC=C(C=C6)Cl)O)S(=O)(=O)C(F)(F)F)CCO [AZD4320] (first compound max 1 µM, 7x7, partner max 1 µM)
0.399

Which combination Emax reading was recorded for the compound CCc1c2c(nc3ccc(O)cc13)-c1cc3c(c(=O)n1C2)COC(=O)[C@]3(O)CC [SN-38] + CN(C)CCCOc1ccc(-c2ccc3ncc4c(c3c2)n(C2CCOCC2)c(=O)n4C)cn1 [AZD0156] (first compound max 0.3 µM, 7x7, partner max 1 µM) ?
0.412

====

Provide the recorded Bliss excess for the entries that follow.
- System: NAMALWA (Burkitt's Lymphoma)
- Protocol Details: Bliss excess, mean over the matrix (fraction); higher = more synergy
API note: the answer field is a bare number with no unit suffix.

Requested read-out: Bliss excess. Entry: O=C(c1cc(Cc2n[nH]c(=O)c3ccccc23)ccc1F)N1CCN(C(=O)C2CC2)CC1 [Olaparib] + CN(CC[C@H](CSC1=CC=CC=C1)NC2=C(C=C(C=C2)S(=O)(=O)NC(=O)C3=CC=C(C=C3)N4CCC(CC4)[C@H](C5=CC=CC=C5C6=CC=C(C=C6)Cl)O)S(=O)(=O)C(F)(F)F)CCO [AZD4320] (first compound max 10 µM, 7x7, partner max 1 µM)
-0.0236

// lookup Bliss excess for CCc1c2c(nc3ccc(O)cc13)-c1cc3c(c(=O)n1C2)COC(=O)[C@]3(O)CC [SN-38] + O=C(c1cc(Cc2n[nH]c(=O)c3ccccc23)ccc1F)N1CCN(C(=O)C2CC2)CC1 [Olaparib] (first compound max 0.3 µM, 7x7, partner max 10 µM)
0.0571

So what does the record say about Bliss excess for COc1nnc2ccc(N3CCC(c4ccc(OCCN5CCN(C)C(=O)[C@H]5C)cc4)CC3)nn12 [AZD5153] + CC1(C)CCC(CN2CCN(c3ccc(C(=O)NS(=O)(=O)c4ccc(NCC5CCOCC5)c([N+](=O)[O-])c4)c(Oc4cnc5[nH]ccc5c4)c3)CC2)=C(c2ccc(Cl)cc2)C1 [Venetoclax] (first compound max 1 µM, 7x7, partner max 1 µM) ?
-0.0558

Entry CC1(C)CCC(CN2CCN(c3ccc(C(=O)NS(=O)(=O)c4ccc(NCC5CCOCC5)c([N+](=O)[O-])c4)c(Oc4cnc5[nH]ccc5c4)c3)CC2)=C(c2ccc(Cl)cc2)C1 [Venetoclax] + CN(C)CCCOc1ccc(-c2ccc3ncc4c(c3c2)n(C2CCOCC2)c(=O)n4C)cn1 [AZD0156] (first compound max 1 µM, 7x7, partner max 1 µM) has what Bliss excess?
0.0387

Which Bliss excess value belongs to Cc1c2c(nn1C)CSCc1cc(n(C)n1)CSc1cc(c3ccccc3c1)OCCCc1c(C(=O)O)n(C)c3c-2c(Cl)ccc13 [AZD5991] + C1CN(CCC1(C(=O)N[C@@H](CCO)C2=CC=C(C=C2)Cl)N)C3=NC=NC4=C3C=CN4 [Capivasertib] (first compound max 1 µM, 7x7, partner max 3 µM) ?
0.0008

Fill in: Bliss excess of Cc1c2c(nn1C)CSCc1cc(n(C)n1)CSc1cc(c3ccccc3c1)OCCCc1c(C(=O)O)n(C)c3c-2c(Cl)ccc13 [AZD5991] + CCN(CCO)CCCOc1ccc2c(Nc3cc(CC(=O)Nc4cccc(F)c4)[nH]n3)ncnc2c1 [AZD2811] (first compound max 1 µM, 7x7, partner max 1 µM) is ___
0.089

====

- Test system: SUP-M2 (T-Cell Non-Hodgkin's Lymphoma)
- Protocol Details: Bliss excess, mean over the matrix (fraction); higher = more synergy
For each of the compounds below, state its Bliss excess.

Tell me the measured Bliss excess of CN(CCO)CC[C@H](CSc1ccccc1)Nc1ccc(S(=O)(=O)NC(=O)c2ccc(N3CCC([C@@H](O)c4ccccc4-c4ccc(Cl)cc4)CC3)cc2)cc1S(=O)(=O)C(F)(F)F [AZD4320] + C[C@@H](Nc1cc(F)cc(F)c1)c1cc(C(=O)N(C)C)cc2c(=O)cc(N3CCOCC3)oc12 [AZD8186] (first compound max 1 µM, 7x7, partner max 3 µM) , please.
0.0539

Consider the compound shown here: COc1nnc2ccc(N3CCC(c4ccc(OCCN5CCN(C)C(=O)[C@H]5C)cc4)CC3)nn12 [AZD5153] + C[C@@H]1COCCN1C2=NC(=NC(=C2)C3(CC3)[S@](=N)(=O)C)C4=C5C=CNC5=NC=C4 [AZD6738] (first compound max 1 µM, 7x7, partner max 10 µM) What is its recorded Bliss excess?
-0.0205

May I ask what Bliss excess has been recorded for CC(=O)c1c(C)c2cnc(Nc3ccc(N4CCNCC4)cn3)nc2n(C2CCCC2)c1=O [Palbociclib] + Cc1c2c(nn1C)CSCc1cc(n(C)n1)CSc1cc(c3ccccc3c1)OCCCc1c(C(=O)O)n(C)c3c-2c(Cl)ccc13 [AZD5991] (first compound max 10 µM, 7x7, partner max 1 µM) ?
-0.0132

// lookup Bliss excess for NC1(C(=O)N[C@@H](CCO)c2ccc(Cl)cc2)CCN(c2ncnc3[nH]ccc23)CC1 [Capivasertib] + C[C@@H]1COCCN1C2=NC(=NC(=C2)C3(CC3)[S@](=N)(=O)C)C4=C5C=CNC5=NC=C4 [AZD6738] (first compound max 10 µM, 7x7, partner max 10 µM)
0.0523

====

- Tested on: WM35 (Melanoma)
- Protocol Details: Bliss excess, mean over the matrix (fraction); higher = more synergy
Measurement Type: Bliss excess
Lab note: record just the number, no unit beside it.

Record request: Bliss excess value, item Cc1c2c(nn1C)CSCc1cc(n(C)n1)CSc1cc(c3ccccc3c1)OCCCc1c(C(=O)O)n(C)c3c-2c(Cl)ccc13 [AZD5991] + CC1(C)CCC(CN2CCN(c3ccc(C(=O)NS(=O)(=O)c4ccc(NCC5CCOCC5)c([N+](=O)[O-])c4)c(Oc4cnc5[nH]ccc5c4)c3)CC2)=C(c2ccc(Cl)cc2)C1 [Venetoclax] (first compound max 1 µM, 7x7, partner max 1 µM)
0.0181

Quick check: Bliss excess of CC(=O)c1c(C)c2cnc(Nc3ccc(N4CCNCC4)cn3)nc2n(C2CCCC2)c1=O [Palbociclib] + Cn1cnc2c(F)c(Nc3ccc(Br)cc3Cl)c(C(=O)NOCCO)cc21 [Selumetinib] (first compound max 10 µM, 7x7, partner max 10 µM) ?
-0.0282

Tell me the measured Bliss excess of COc1cc2c(cc1OCCCCCOc1cc3c(cc1OC)C(=O)N1C=C(C)C[C@H]1C=N3)N=C[C@@H]1CC(C)=CN1C2=O [SG3199] + O=C(c1cc(Cc2n[nH]c(=O)c3ccccc23)ccc1F)N1CCN(C(=O)C2CC2)CC1 [Olaparib] (first compound max 0.001 µM, 7x7, partner max 10 µM) , please.
-0.0129

Dear colleague, I am looking for the recorded Bliss excess of the following compound: Cc1c2c(nn1C)CSCc1cc(n(C)n1)CSc1cc(c3ccccc3c1)OCCCc1c(C(=O)O)n(C)c3c-2c(Cl)ccc13 [AZD5991] + Cn1cnc2c(F)c(Nc3ccc(Br)cc3Cl)c(C(=O)NOCCO)cc21 [Selumetinib] (first compound max 1 µM, 7x7, partner max 3 µM)
0.0794

====

- Tested on: SK-N-SH (Neuroblastoma)
- Protocol Details: combination Emax (second highest fraction inhibited in the dose matrix, 72 h); higher = more inhibition; extreme values may be limits of the assay
Give combination Emax for every item shown.
Keep it simple and answer with nothing but the number.

Need combination Emax, item CC1(C)CCC(CN2CCN(c3ccc(C(=O)NS(=O)(=O)c4ccc(NCC5CCOCC5)c([N+](=O)[O-])c4)c(Oc4cnc5[nH]ccc5c4)c3)CC2)=C(c2ccc(Cl)cc2)C1 [Venetoclax] + CCN(CCO)CCCOc1ccc2c(Nc3cc(CC(=O)Nc4cccc(F)c4)[nH]n3)ncnc2c1 [AZD2811] (first compound max 1 µM, 7x7, partner max 1 µM)
0.73

Which combination Emax is listed for NC1(C(=O)N[C@@H](CCO)c2ccc(Cl)cc2)CCN(c2ncnc3[nH]ccc23)CC1 [Capivasertib] + C[C@@H]1COCCN1C2=NC(=NC(=C2)C3(CC3)[S@](=N)(=O)C)C4=C5C=CNC5=NC=C4 [AZD6738] (first compound max 10 µM, 7x7, partner max 10 µM) ?
0.872

Endpoint output: combination Emax of CC1(C)CCC(CN2CCN(c3ccc(C(=O)NS(=O)(=O)c4ccc(NCC5CCOCC5)c([N+](=O)[O-])c4)c(Oc4cnc5[nH]ccc5c4)c3)CC2)=C(c2ccc(Cl)cc2)C1 [Venetoclax] + C1CN(CCC1(C(=O)N[C@@H](CCO)C2=CC=C(C=C2)Cl)N)C3=NC=NC4=C3C=CN4 [Capivasertib] (first compound max 1 µM, 7x7, partner max 3 µM) . Value?
0.394

Name the reported combination Emax value associated with the compound C=CCn1c(=O)c2cnc(Nc3ccc(N4CCN(C)CC4)cc3)nc2n1-c1cccc(C(C)(C)O)n1 [AZD1775] + C1CN(CCC1(C(=O)N[C@@H](CCO)C2=CC=C(C=C2)Cl)N)C3=NC=NC4=C3C=CN4 [Capivasertib] (first compound max 3 µM, partner max 3 µM)
0.711

GET /values?readout=combination Emax&item= C[C@@H]1COCCN1c1cc(C2([S@](C)(=N)=O)CC2)nc(-c2ccnc3[nH]ccc23)n1 [AZD6738] + Nc1ccn([C@@H]2O[C@H](CO)[C@@H](O)C2(F)F)c(=O)n1 [Gemcitabine] (first compound max 10 µM, 7x7, partner max 0.3 µM)
0.932

Value lookup for combination Emax; key = C[C@@H](Oc1cc(-c2cnn(C3CCNCC3)c2)cnc1N)c1c(Cl)ccc(F)c1Cl [Crizotinib] + CC1=C(C(=CC=C1)Cl)NC(=O)C2=CN=C(S2)NC3=CC(=NC(=N3)C)N4CCN(CC4)CCO [Dasatinib] (first compound max 10 µM, 7x7, partner max 2 µM)
0.859

Given NC1(C(=O)N[C@@H](CCO)c2ccc(Cl)cc2)CCN(c2ncnc3[nH]ccc23)CC1 [Capivasertib] + Cn1cnc2c(F)c(Nc3ccc(Br)cc3Cl)c(C(=O)NOCCO)cc21 [Selumetinib] (first compound max 10 µM, 7x7, partner max 10 µM) , state its recorded combination Emax.
0.333

Requested read-out: combination Emax. Entry: Cc1cc2ncnn2cc1Nc1ncc2c(n1)n(C1CCOCC1)c(=O)n2C [AZD7648] + CN(C)CCCOc1ccc(-c2ccc3ncc4c(c3c2)n(C2CCOCC2)c(=O)n4C)cn1 [AZD0156] (first compound max 10 µM, 7x7, partner max 1 µM)
0.366

If you can, please state the reported combination Emax value of CCN(CCO)CCCOc1ccc2c(Nc3cc(CC(=O)Nc4cccc(F)c4)[nH]n3)ncnc2c1 [AZD2811] + C[C@@H]1COCCN1C2=NC(=NC(=C2)C3(CC3)[S@](=N)(=O)C)C4=C5C=CNC5=NC=C4 [AZD6738] (first compound max 1 µM, 7x7, partner max 10 µM) .
0.906

Reported combination Emax for Cc1c2c(nn1C)CSCc1cc(n(C)n1)CSc1cc(c3ccccc3c1)OCCCc1c(C(=O)O)n(C)c3c-2c(Cl)ccc13 [AZD5991] + C[C@@H](Nc1cc(F)cc(F)c1)c1cc(C(=O)N(C)C)cc2c(=O)cc(N3CCOCC3)oc12 [AZD8186] (first compound max 1 µM, 7x7, partner max 3 µM) : what is it?
0.481

Looking for the measured combination Emax of C[C@@H]1COCCN1c1cc(C2([S@](C)(=N)=O)CC2)nc(-c2ccnc3[nH]ccc23)n1 [AZD6738] + O=C(c1cc(Cc2n[nH]c(=O)c3ccccc23)ccc1F)N1CCN(C(=O)C2CC2)CC1 [Olaparib] (first compound max 10 µM, 7x7, partner max 10 µM) , can you help?
0.929

I have this compound here, N#Cc1cnc(Nc2cc(NC[C@H]3CNCCO3)c(C(F)(F)F)cn2)cn1 [SRA737] + C=CCn1c(=O)c2cnc(Nc3ccc(N4CCN(C)CC4)cc3)nc2n1-c1cccc(C(C)(C)O)n1 [AZD1775] (first compound max 10 µM, partner max 1 µM) , and I need its recorded combination Emax.
0.804

combination Emax for Cc1nc(-c2cn3c(n2)-c2ccc(-c4cnn(C(C)(C)C(N)=O)c4)cc2OCC3)n(C(C)C)n1 [Taselisib] + O=C(Nc1ccc2[nH]nc(-c3ccncc3)c2c1)[C@@H]1CCN(CC(=O)N2CCN(c3ccc(-c4ncccn4)cc3)CC2)C1 [SCH772984] (first compound max 10 µM, 7x7, partner max 5 µM) ?
0.72

Reported combination Emax for O=C(c1cc(Cc2n[nH]c(=O)c3ccccc23)ccc1F)N1CCN(C(=O)C2CC2)CC1 [Olaparib] + CN(CC[C@H](CSC1=CC=CC=C1)NC2=C(C=C(C=C2)S(=O)(=O)NC(=O)C3=CC=C(C=C3)N4CCC(CC4)[C@H](C5=CC=CC=C5C6=CC=C(C=C6)Cl)O)S(=O)(=O)C(F)(F)F)CCO [AZD4320] (first compound max 10 µM, 7x7, partner max 1 µM) : what is it?
0.688

Values compiled from the supplement of paper PMC11061612.
